molecular target: LmCPB2.8ΔCTE (CPB) (Leishmania mexicana, UniProt P36400); assay: Cysteine protease (CPB) enzyme inhibition assay; format: biochemical; details: mean ± SD of two independent replicates, SD
Sequence (P36400 126-343, stated change not applied): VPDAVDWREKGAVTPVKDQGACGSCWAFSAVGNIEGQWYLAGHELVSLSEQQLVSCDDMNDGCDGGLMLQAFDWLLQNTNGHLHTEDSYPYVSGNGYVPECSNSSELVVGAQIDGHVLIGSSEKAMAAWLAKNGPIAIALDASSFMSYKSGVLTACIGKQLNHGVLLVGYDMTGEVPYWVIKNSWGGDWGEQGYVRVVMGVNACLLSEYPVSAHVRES
No end group written: not given here.
Assay Metric: IC50

>>> readout_value("FLSGIVGMLGKLF-NH2 [TSHa]")
"9.2 µM"

* * *

system: L. mexicana promastigotes; assay: microbe, parasite or virus in culture; type: cell-based, Leishmania mexicana; details: ± standard deviation, SD, read-out: IC50 Promastigote
No end group written: not given here.
Assay Metric: IC50 (µM)

>>> readout_value("FLSGIVGMLGKLF-NH2 [TSHa]")
6.3
